Reference source: paper PMC7676998

molecular target: nociceptin NOP (ORL1) (Homo sapiens, UniProt P41146); assay: Radioligand binding, nociceptin receptor; conditions: 100 nM test compound
Sequence (P41146 whole entry): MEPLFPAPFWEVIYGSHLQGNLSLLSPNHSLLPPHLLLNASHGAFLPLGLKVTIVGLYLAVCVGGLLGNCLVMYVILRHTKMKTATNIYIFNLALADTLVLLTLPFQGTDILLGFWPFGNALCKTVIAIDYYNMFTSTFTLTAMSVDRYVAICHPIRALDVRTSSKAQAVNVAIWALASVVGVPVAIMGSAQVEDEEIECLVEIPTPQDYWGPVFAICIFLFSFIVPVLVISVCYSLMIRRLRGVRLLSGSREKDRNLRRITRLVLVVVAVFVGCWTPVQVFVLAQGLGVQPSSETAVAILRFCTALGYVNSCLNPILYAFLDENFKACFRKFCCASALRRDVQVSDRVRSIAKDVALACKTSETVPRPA
# percent displacement of bound radioligand, nociceptin NOP (ORL1) values compiled below
Quantity Name: percent displacement of bound radioligand, nociceptin NOP (ORL1) (%)

{"Compound": "CC[C@@H]1CN2CCc3c([nH]c4ccccc34)[C@@H]2C[C@@H]1/C(=C\\OC)C(=O)OC", "Uom": "%", "Recorded Value": "−1.3"}
{"Compound": "CC[C@@H]1CN2CC[C@@]3(O)C(=Nc4cccc(OC)c43)[C@@H]2C[C@@H]1/C(=C\\OC)C(=O)OC [7-hydroxymitragynine]", "Uom": "%", "Recorded Value": "−1.6"}
{"Compound": "CC[C@@H]1CN2CCc3c([nH]c4cccc(O)c34)[C@@H]2C[C@@H]1/C(=C\\OC)C(=O)OC [9-hydroxycorynantheidine]", "Uom": "%", "Recorded Value": "−2.9"}
{"Compound": "CC[C@@H]1CN2CCc3c([nH]c4cccc(OC)c34)[C@H]2C[C@@H]1/C(=C\\OC)C(=O)OC", "Uom": "%", "Recorded Value": "−14.9"}
